Give measured pIC50 for each item. Keep answers brief.
biological target: hBTK (full-length BTK, 6HIS-tag cleaved) (Homo sapiens (Human), UniProt Q06187); test: BTK enzymatic activity, LANCE TR-FRET assay (Assay Method C); format: biochemical; details: LANCE TR-FRET, 50 pM hBTK, 25 μM ATP; class 100-1000 is given as ≧100 nM-<1 μM; read-out: IC50 Btk activity values - Assay Method C
pIC50: −log10 of the molar value. Structures can show the parent of a compound that is named as a salt.

CC1(C(=O)N2CCO[C@@H](c3nc(-c4ccc(C(=O)Nc5cc(C(F)(F)F)ccn5)cc4F)c4c(N)nccn34)C2)COC1 [Example 513, TFA salt]
> 8.00
Nc1nccn2c([C@H]3CC[C@@H](CO)N(C(=O)C4CC4)C3)nc(-c3ccc(C(=O)Nc4cc(C(F)(F)F)ccn4)cc3)c12 [Example 419]
> 8.00
CCC(=O)N1CCC[C@@H](c2nc(-c3ccc(C(=O)Nc4cc(C(F)F)ccn4)cc3F)c3c(N)nccn23)C1 [Example 488]
> 8.00
Cc1cnc(N)c2c(-c3ccc(C(=O)Nc4cc(OC5CC5)ccn4)cc3)nc([C@@H]3CCCN(C(=O)C4(C)COC4)C3)n12 [Example 456]
> 8.00
CN1C[C@@H](c2nc(-c3ccc(C(=O)Nc4cc(C(F)(F)F)ccn4)cc3)c3c(N)nccn23)CC[C@@H]1C(F)(F)F [Example 410]
> 8.00

Required: pIC50, one value per compound below.
1. COc1ccc(NC(=O)c2ccc(-c3nc([C@@H]4CCCN(C(=O)C5(C)COC5)C4)n4ccnc(N)c34)cc2)nc1 [Example 325]
2. COCC(=O)N1CCC[C@@H](c2nc(-c3ccc(C(=O)Nc4cc(C(F)(F)F)ccn4)cc3)c3c(N)nccn23)C1 [Example 340]
3. Nc1nccn2c([C@@H]3CCCN(C(=O)NC4CC4)C3)nc(-c3ccc(C(=O)Nc4cc(C(F)(F)F)ccn4)cc3F)c12 [Example 489]
4. Cc1ccnc(NC(=O)c2ccc(-c3nc([C@@H]4CCCN(C(=O)C5(C)COC5)C4)n4c(Cl)cnc(N)c34)cc2)c1 [Example 446]

Solution:
7.00 to 8.00
> 8.00
> 8.00
> 8.00

Problem: Would you mind telling me what pIC50 value was observed for Cn1cc2c(n1)CCC[C@H]2n1nc(-c2ccc(C(=O)Nc3cc(C(F)(F)F)ccn3)cc2)c2c(N)ncnc21 [Example 557, TFA salt] ?
Solution: 6.00 to 7.00

----------
target: Btk enzyme (His-Btk) (Homo sapiens (Human)); assay: Btk enzyme activity, IMAP fluorescence polarization assay (Assay Method A)
Sequence (Q06187 whole entry): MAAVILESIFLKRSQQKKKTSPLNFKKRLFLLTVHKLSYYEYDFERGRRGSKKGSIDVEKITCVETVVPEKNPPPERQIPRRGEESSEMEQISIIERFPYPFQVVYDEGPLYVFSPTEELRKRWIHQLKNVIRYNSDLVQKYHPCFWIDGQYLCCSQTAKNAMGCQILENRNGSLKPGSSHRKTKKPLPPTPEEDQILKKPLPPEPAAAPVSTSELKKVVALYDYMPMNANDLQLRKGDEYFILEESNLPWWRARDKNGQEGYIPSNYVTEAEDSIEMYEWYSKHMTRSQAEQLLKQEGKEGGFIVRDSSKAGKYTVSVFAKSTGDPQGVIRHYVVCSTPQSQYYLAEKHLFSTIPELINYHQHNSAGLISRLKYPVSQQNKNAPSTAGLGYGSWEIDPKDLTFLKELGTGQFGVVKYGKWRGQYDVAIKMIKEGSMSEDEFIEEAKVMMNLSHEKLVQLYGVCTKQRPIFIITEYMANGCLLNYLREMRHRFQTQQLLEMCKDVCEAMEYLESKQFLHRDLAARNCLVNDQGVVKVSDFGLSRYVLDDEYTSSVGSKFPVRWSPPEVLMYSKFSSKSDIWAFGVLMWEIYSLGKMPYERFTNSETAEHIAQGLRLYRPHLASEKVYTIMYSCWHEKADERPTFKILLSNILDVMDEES
pEC50: −log10 of the molar value. Where a name gives a salt, the structure may show the parent alone.
Give measured pEC50 for each item. Keep answers brief.

CCOC(=O)N1C[C@H](c2nc(-c3ccc(C(=O)Nc4cc(C(F)(F)F)ccn4)cc3)c3c(N)nccn23)CC[C@H]1C (relative stereo) [Example 182, TFA salt]
> 8.00
NCCCCC(=O)N1CCC[C@@H](c2nc(-c3ccc(C(=O)Nc4ccccn4)cc3)c3c(N)nccn23)C1
7.00 to 8.00
Nc1ncnc2c1c(-c1ccc(C(=O)Nc3cc(C(F)(F)F)ccn3)cc1)nn2[C@@H]1CCCN(C(=O)C(F)(F)F)C1
7.00 to 8.00
Nc1nccn2c([C@@H]3CCCN(CC4CCOC4)C3)nc(-c3ccc(C(=O)Nc4cc(C5CC5)ccn4)cc3)c12 (some centres unmarked) [Example 145, TFA salt]
7.00 to 8.00
CC1(C(=O)N2CCC[C@@H](c3nc(-c4ccc(C(=O)Nc5cc(C(F)(F)F)ccn5)cc4)c4c(N)ncc(-c5ccccc5)n34)C2)COC1
7.00 to 8.00
Nc1nccn2c([C@@H]3CCCN(C(=O)C4CC4)C3)nc(-c3ccc(C(=O)Nc4cc(C(F)(F)F)ccn4)cc3)c12
> 8.00

Required: pEC50, one value per molecule below.
1. C[C@@H]1CC[C@@H](c2nc(-c3ccc(C(=O)Nc4cc(C(F)(F)F)ccn4)cc3)c3c(N)nccn23)CN1C(=O)C1CCCO1 (relative stereo) [Example 185, TFA salt]
2. Nc1nccn2c1c(-c1ccc(C(=O)Nc3ccccn3)c(F)c1)nc2[C@H]1CC[C@H](O)CC1
3. Nc1nccn2c(C3CC4CCC3N4C(=O)OCc3ccccc3)nc(-c3ccc(C(=O)Nc4ccccn4)cc3)c12 (centres unmarked)

Solution:
7.00 to 8.00
6.00 to 7.00
7.00 to 8.00

Required: pEC50, one value per molecule below.
1. COC1CN(c2nc(-c3ccc(C(=O)Nc4ccccn4)cc3)c3c(N)nccn23)C1
2. COCCC(=O)N1CCC[C@@H](c2nc(-c3ccc(C(=O)Nc4ccccn4)c(F)c3)c3c(N)nccn23)C1 [Example 282, TFA salt]

Solution:
["6.00 to 7.00", "> 8.00"]
